Values compiled from paper PMC5363571.

# Measured Target: USP7 (Homo sapiens, UniProt Q93009)
# Sequence (Q93009 whole entry): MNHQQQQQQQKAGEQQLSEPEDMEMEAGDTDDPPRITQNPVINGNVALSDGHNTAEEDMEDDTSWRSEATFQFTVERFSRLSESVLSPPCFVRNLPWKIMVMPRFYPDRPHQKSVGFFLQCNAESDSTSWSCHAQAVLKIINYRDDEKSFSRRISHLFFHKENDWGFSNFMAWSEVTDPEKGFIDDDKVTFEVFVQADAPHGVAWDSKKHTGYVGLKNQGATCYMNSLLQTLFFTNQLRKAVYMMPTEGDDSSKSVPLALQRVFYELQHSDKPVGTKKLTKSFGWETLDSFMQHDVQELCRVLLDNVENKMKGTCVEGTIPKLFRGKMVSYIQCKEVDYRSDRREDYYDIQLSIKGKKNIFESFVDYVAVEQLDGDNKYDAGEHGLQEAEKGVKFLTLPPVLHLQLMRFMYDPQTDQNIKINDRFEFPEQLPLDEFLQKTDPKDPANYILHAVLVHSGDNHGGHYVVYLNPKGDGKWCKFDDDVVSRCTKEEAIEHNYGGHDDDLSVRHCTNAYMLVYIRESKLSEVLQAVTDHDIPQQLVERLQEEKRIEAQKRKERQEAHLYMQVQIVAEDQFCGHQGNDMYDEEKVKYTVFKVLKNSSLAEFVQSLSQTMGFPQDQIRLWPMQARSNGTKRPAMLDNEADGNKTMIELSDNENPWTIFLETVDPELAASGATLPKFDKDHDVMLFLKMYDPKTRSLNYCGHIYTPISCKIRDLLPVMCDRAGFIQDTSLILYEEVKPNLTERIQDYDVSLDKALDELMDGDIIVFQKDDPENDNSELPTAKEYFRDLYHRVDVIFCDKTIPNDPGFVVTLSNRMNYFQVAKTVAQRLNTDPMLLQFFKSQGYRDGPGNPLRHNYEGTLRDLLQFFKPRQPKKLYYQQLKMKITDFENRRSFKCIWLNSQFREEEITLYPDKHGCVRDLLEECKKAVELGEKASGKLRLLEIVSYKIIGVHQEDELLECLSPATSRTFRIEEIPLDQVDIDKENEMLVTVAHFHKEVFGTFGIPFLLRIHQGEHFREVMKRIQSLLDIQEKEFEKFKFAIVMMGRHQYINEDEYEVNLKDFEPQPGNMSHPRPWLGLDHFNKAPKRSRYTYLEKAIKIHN
# Procedure Details: biochemical
# Set-up: Ub-AMC hydrolysis by recombinant USP7 (20 nM), 30 min pre-incubation, fluorescence read-out
# Reported Conditions: read-out: % Inhibition at 50 μM
Reported Property: inhibition at 50 µM

# inhibition at 50 µM lookup, item CC[C@H]1OC(=O)[C@H](C)[C@@H](O[C@H]2C[C@@](C)(OC)[C@@H](O)[C@H](C)O2)[C@H](C)[C@@H](O[C@@H]2O[C@H](C)C[C@H](N(C)C)[C@H]2O)[C@](C)(OC)C[C@@H](C)C(=O)[C@H](C)[C@@H](O)[C@]1(C)O [Clarithromycin]
< 5%

Then what about the compound C/N=C(/NC#N)NCCSCc1csc(NC(=N)N)n1 [Tiotidine] ?
11.6%

Then what about the compound C[C@@H](O[C@H]1OCCN(Cc2n[nH]c(=O)[nH]2)[C@H]1c1ccc(F)cc1)c1cc(C(F)(F)F)cc(C(F)(F)F)c1 [Aprepitant] ?
< 5%

Then what about the compound CC1(C)C[C@@H]1C(=O)N/C(=C\CCCCSC[C@H](N)C(=O)O)C(=O)O [Cilastatin] ?
< 5%

Then what about the compound Clc1ccc(COC(Cn2ccnc2)c2ccc(Cl)cc2Cl)c(Cl)c1 (stereo not drawn) [Miconazole] ?
< 5%

Then what about the compound C[C@H]1[C@H](C)CC[C@]2(C(=O)O)CC[C@]3(C)C(=CC[C@@H]4[C@@]5(C)C[C@@H](O)[C@H](O)[C@@](C)(CO)[C@@H]5[C@H](O)C[C@]43C)[C@H]12 [Madecassic acid] ?
< 5%

###

# Measured Target: UniProt Q93009
# Procedure Details: biochemical
# Parameters: Ub-AMC hydrolysis by recombinant USP7 (20 nM), 30 min pre-incubation, fluorescence read-out
# Reported Conditions: read-out: % Inhibition at 50 μM
Where a name gives a salt, the structure may show the parent alone.
Kindly supply the reported inhibition at 50 µM values for the records listed here.

# inhibition at 50 µM lookup, item CO[C@H]1/C=C/O[C@@]2(C)Oc3c(C)c(O)c4c(O)c(c(/C=N/N5CCN(C)CC5)c(O)c4c3C2=O)NC(=O)/C(C)=C\C=C\[C@H](C)[C@H](O)[C@@H](C)[C@@H](O)[C@@H](C)[C@H](OC(C)=O)[C@@H]1C
< 5%

Then what about the molecule COc1ncnc(NS(=O)(=O)c2ccc(N)cc2)c1OC ?
< 5%

Then what about the molecule O=C1C[C@@H]2OCC=C3CN4CC[C@]56c7ccccc7N1[C@H]5[C@H]2[C@H]3C[C@H]46 [Strychnine HCl] ?
< 5%

###

Kindly supply the reported inhibition at 50 µM values for the records listed here.
# Measured Target: USP7 (Homo sapiens)
# Procedure Details: biochemical
# Parameters: Ub-AMC hydrolysis by recombinant USP7 (20 nM), 30 min pre-incubation, fluorescence read-out
# Reported Conditions: read-out: % Inhibition at 50 μM
Structures can show the parent of a compound that is named as a salt.

Form field: inhibition at 50 µM recorded for O=P(O)(O)C(Cl)(Cl)P(=O)(O)O [Clodronate disodium] with USP7 (Homo sapiens) (enter value)
< 5%

Then what about the compound CC(C)Nc1cccnc1N1CCN(C(=O)c2cc3cc(NS(C)(=O)=O)ccc3[nH]2)CC1 [Delavirdine mesylate] ?
< 5%

Then what about the compound CN1CCN(CCCN2c3ccccc3Sc3ccc(C(F)(F)F)cc32)CC1 [Trifluoperazine 2HCl] ?
< 5%

Then what about the compound CCc1nn(CCCN2CCN(c3cccc(Cl)c3)CC2)c(=O)n1CCOc1ccccc1 [Nefazodone] ?
< 5%

Then what about the compound C[C@H]1O[C@@H](n2cc(F)c(=O)[nH]c2=O)[C@H](O)[C@@H]1O [Doxifluridine] ?
< 5%

Then what about the compound CC[C@@]1(O)C(=O)OCc2c1cc1n(c2=O)Cc2cc3ccccc3nc2-1 [Camptothecin] ?
< 5%

Then what about the compound Nc1ccn([C@@H]2O[C@H](CO)[C@@H](O)C2(F)F)c(=O)n1 [Gemcitabine HCl] ?
21.5%

Then what about the compound Cc1ccc(/C(=C\CN2CCCC2)c2ccccn2)cc1 [Trans-triprolidine HCl] ?
< 5%

Then what about the compound Clc1ccc2c(c1)C(N1CCNCC1)=Nc1ccccc1O2 [Amoxapine] ?
16.8%
